biological target: Sigma non-opioid intracellular receptor 1 (Cavia porcellus) (UniProt Q60492); test: Inhibition of specific binding of [3H]NANM of sigma binding site in Guinea pig brain membranes
Sequence (Q60492 whole entry, looked up): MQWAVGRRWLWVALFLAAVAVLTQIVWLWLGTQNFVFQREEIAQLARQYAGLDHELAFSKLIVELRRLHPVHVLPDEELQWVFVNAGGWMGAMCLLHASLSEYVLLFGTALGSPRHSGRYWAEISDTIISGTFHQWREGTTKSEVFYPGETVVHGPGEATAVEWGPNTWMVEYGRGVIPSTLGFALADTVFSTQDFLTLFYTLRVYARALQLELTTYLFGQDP
Counter-ions that a name gives are not always drawn.
quantityName: IC50

compound	IC50
CN1CCc2cccc3c2[C@H]1Cc1ccc(O)c(O)c1-3 [APOKYN]	> 31000 nM

Note: attention shifts to another entry.
Hey, Sigma non-opioid intracellular receptor 1 (Cavia porcellus) (UniProt Q60492) data for C=CCN1CC[C@]23c4c5ccc(O)c4O[C@H]2[C@@H](O)C=C[C@H]3[C@H]1C5 [NALORPHINE HYDROCHLORIDE] : IC50 came out at 1800 nM

---

biological target: Sigma non-opioid intracellular receptor 1 (Cavia porcellus) (UniProt Q60492); test: Inhibition of specific binding of [125I]-PIPAG to sigma binding site in Guinea pig brain membranes
Counter-ions that a name gives are not always drawn.
quantityName: IC50 (µM)
Write the answer as a number in µM, unit excluded.

Recorded IC50 for C=CCN1CC[C@]23c4c5ccc(O)c4O[C@H]2[C@@H](O)C=C[C@H]3[C@H]1C5 [NALORPHINE HYDROCHLORIDE] on Sigma non-opioid intracellular receptor 1 (Cavia porcellus) (UniProt Q60492) was 5

---

test: Inhibition of specific binding of [3H]DTG to sigma receptor in Guinea pig brain membranes
Where a name gives a salt, the structure may show the parent alone.
quantityName: IC50 (nM)
Expressed in nM, but write only the number.

// IC50 lookup, compound = C=CCN1CC[C@]23c4c5ccc(O)c4O[C@H]2[C@@H](O)C=C[C@H]3[C@H]1C5 [NALORPHINE HYDROCHLORIDE] , result: 625

---

experiment: Inhibition of specific binding of [3H]3-PPP to sigma receptor in Guinea pig brain membranes
Structures can show the parent of a compound that is named as a salt.
quantityName: IC50 (nM)
# unit: nM | format: bare number

Kindly note the recorded IC50 for C=CCN1CC[C@]23c4c5ccc(O)c4O[C@H]2[C@@H](O)C=C[C@H]3[C@H]1C5 [NALORPHINE HYDROCHLORIDE] , which is 93

---

assay: Inhibition of specific binding of [3H]3-PPP to sigma binding site in Guinea pig brain membranes
Counter-ions that a name gives are not always drawn.
quantityName: pIC50
Scale: negative log10 of molar concentration, which is what pIC50 denotes.

Per the records, this compound ( C=CCN1CC[C@]23c4c5ccc(O)c4O[C@H]2[C@@H](O)C=C[C@H]3[C@H]1C5 [NALORPHINE HYDROCHLORIDE] ) has pIC50 equal to 5.55
